# Tested on: T. gondii Me49 strain (type II) tachyzoites
# experimental.protocol: In vitro growth inhibition of red fluorescent tachyzoites, Me49 strain
# Format: cell-based
# settings: Toxoplasma gondii, tachyzoite growth
quantity.kind: EC50 (nM)

INSERT INTO results (given_smiles, value_unit, observed_measurement) VALUES
  ('O=C1C(O)=C([C@H]2CC[C@H](c3ccc(Cl)cc3)CC2)C(=O)c2ccccc21', 'nM', 1.53),
  ('CCc1nc(N)nc(N)c1-c1ccc(Cl)cc1', 'nM', 1.67);
